All figures here come from patent US20220024981A1.

assay-target: T1, Human PCSK9 Alexa Fluor 647 (human, UniProt Q8NBP7 31-692, limits assumed, Alexa Fluor 647 label (site not stated))
T1 construct: Labelled tracer of the TR-FRET assay, 16 nM stock; also called proprotein convertase subtilisin/kexin type 9
T1 sequence (Q8NBP7 31-692 limits assumed): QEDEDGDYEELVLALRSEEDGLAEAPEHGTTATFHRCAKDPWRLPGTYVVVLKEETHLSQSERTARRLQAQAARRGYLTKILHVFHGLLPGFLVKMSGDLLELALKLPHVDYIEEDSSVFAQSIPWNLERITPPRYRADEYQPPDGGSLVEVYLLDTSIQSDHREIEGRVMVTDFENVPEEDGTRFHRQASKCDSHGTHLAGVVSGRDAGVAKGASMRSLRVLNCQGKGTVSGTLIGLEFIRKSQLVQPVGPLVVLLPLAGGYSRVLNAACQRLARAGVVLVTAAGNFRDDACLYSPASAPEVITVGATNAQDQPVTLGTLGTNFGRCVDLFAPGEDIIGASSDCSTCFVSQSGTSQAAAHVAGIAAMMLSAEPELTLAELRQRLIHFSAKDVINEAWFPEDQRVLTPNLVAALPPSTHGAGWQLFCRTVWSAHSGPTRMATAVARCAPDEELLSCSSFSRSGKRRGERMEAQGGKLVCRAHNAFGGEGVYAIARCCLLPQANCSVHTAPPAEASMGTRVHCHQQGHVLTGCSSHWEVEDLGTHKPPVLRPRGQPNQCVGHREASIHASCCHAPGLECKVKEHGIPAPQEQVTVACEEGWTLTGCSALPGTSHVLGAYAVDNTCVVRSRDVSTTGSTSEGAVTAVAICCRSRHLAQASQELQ
protocol-notes: TR-FRET competition: PCSK9-Alexa Fluor 647 vs LDLR ECD-Eu kryptate
Bridge positions count the residues as written; N and C are the ends. Square brackets hold non-standard residues; d marks the D form. Phe(4-Cl) = N[C@@H](Cc1ccc(Cl)cc1)C(=O)O; NMeA = CN[C@@H](C)C(=O)O
property-label: pIC50
Just the number, please; pIC50 means minus log10 of the concentration in mol/L.

Kindly note the recorded pIC50 for {CH2CO}-FVATTF[NMeA][Phe(4-Cl)][NMeA]NAPC-NH2 (thioether N-13; SMILES CC(C)[C@@H]1NC(=O)[C@H](Cc2ccccc2)NC(=O)CSC[C@@H](C(N)=O)NC(=O)[C@@H]2CCCN2C(=O)[C@H](C)NC(=O)[C@H](CC(N)=O)NC(=O)[C@H](C)N(C)C(=O)[C@H](Cc2ccc(Cl)cc2)NC(=O)[C@H](C)N(C)C(=O)[C@H](Cc2ccccc2)NC(=O)[C@H]([C@@H](C)O)NC(=O)[C@H]([C@@H](C)O)NC(=O)[C@H](C)NC1=O, also called 2-5; Ex. No. 2-5) [Ac*-F-V-A-T-T-F-(N-Me)A-(p-Cl)F-(N-Me)A-N-A-P-C*-NH2] , which is 8.96
